Every entry's value here was drawn from ChEMBL document CHEMBL6115028.

Consider the following compounds and their measured pEC50 readings.
# Test system: Human immunodeficiency virus 1
# methodNotes: Antiviral activity against HIV-1 IIIB infected in […] cells assessed as reduction in viral replication measured for 72 hrs
# Assay type: functional, organism-based
# protocolConditions: Human immunodeficiency virus 1, IIIB
Quick note: pEC50 means taking -log10 of the concentration in moles per liter.

{"compound": "Cc1c(Sc2ccccc2)n(COCCO)c(=O)[nH]c1=O [HEPT]", "valueObserved": 5.15}

Prompt line: Which pEC50 reading was recorded for the compound "CCc1c(CC2CCCCC2)nc(SCC(=O)c2ccc(OP(=O)(OC)OC)cc2)[nH]c1=O" ?
Response line: 8.00
